target: Ephrin type-A receptor 4 (Homo sapiens, UniProt P54764)
Sequence (P54764 whole entry): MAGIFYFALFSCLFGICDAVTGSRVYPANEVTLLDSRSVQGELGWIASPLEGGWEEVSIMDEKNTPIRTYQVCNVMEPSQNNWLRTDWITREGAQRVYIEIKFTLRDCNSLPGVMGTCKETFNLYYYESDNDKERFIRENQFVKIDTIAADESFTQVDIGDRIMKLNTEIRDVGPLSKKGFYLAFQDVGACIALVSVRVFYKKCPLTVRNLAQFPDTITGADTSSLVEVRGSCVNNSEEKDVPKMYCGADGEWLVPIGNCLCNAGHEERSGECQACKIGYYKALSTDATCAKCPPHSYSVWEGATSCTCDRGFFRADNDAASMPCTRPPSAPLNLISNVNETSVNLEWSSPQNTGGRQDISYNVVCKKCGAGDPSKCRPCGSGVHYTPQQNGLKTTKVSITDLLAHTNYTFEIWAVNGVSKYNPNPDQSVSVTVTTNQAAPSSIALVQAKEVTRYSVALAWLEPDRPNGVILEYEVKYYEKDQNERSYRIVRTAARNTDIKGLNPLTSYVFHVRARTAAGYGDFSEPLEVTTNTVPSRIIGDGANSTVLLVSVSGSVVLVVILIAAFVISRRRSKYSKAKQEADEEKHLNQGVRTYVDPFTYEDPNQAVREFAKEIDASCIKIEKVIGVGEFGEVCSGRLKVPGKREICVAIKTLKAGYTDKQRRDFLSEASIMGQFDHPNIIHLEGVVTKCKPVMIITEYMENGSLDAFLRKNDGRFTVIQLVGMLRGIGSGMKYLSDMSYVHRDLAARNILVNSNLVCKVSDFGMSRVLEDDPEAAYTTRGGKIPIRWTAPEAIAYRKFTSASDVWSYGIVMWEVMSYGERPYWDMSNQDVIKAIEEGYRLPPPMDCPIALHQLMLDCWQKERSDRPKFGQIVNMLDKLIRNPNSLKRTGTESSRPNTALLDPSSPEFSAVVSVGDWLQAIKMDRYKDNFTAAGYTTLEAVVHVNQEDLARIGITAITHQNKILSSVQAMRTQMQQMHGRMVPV
Non-standard residues stand in square brackets, D forms with d. Residues, ends and D or L forms follow the SMILES beside them. *: point of attachment. Cyclohexanoyl(1S,3S-3-NH2) = N[C@H]1CCC[C@H](C(=O)*)C1; Trp(6-OMe) = COc1ccc2c(C[C@H](N)C(=O)O)c[nH]c2c1; Trp(5-OH) = N[C@@H](Cc1c[nH]c2ccc(O)cc12)C(=O)O; NHPh(4-CH2-morpholino) = c1cc(N*)ccc1CN1CCOCC1; NH(4-morpholinophenyl) = c1cc(N2CCOCC2)ccc1N*; Bip = N[C@@H](Cc1ccc(-c2ccccc2)cc1)C(=O)O; 2Nal = N[C@@H](Cc1ccc2ccccc2c1)C(=O)O; hArg = N=C(N)NCCCC[C@H](N)C(=O)O; GABA = NCCCC(=O)O; X1 = Oc1ccccc1CN*
QUANTITY_KIND: Kd (nM)
One number for each entry, in nM.

Examples with answers:
- COMPOUND: "N=C(N)NCCCC[C@H](NC(=O)[C@H](Cc1ccc(-c2ccccc2)cc1)NC(=O)[C@H](Cc1c[nH]c2ccccc12)NC(=O)CCCN)C(N)=O (H-[GABA]W[Bip][hArg]-NH2)"
  UNITS_TEXT: "nM"
  Kd: 663
- COMPOUND: "COc1ccc2c(C[C@H](NC(=O)CCCN)C(=O)N[C@@H](Cc3ccc(-c4ccccc4)cc3)C(=O)N[C@@H](CCCCNC(=N)N)C(N)=O)c[nH]c2c1 (H-[GABA][Trp(6-OMe)][Bip][hArg]-NH2)"
  UNITS_TEXT: "nM"
  Kd: 2460
- COMPOUND: "N=C(N)NCCCC[C@H](NC(=O)[C@H](Cc1ccc(-c2ccccc2)cc1)NC(=O)[C@H](Cc1c[nH]c2ccc(O)cc12)NC(=O)CCCN)C(=O)NCC(=O)Nc1ccc(CN2CCOCC2)cc1 (H-[GABA][Trp(5-OH)][Bip][hArg]G-{NHPh(4-CH2-morpholino)})"
  UNITS_TEXT: "nM"
  Kd: 106
- COMPOUND: "N=C(N)NCCCC[C@H](NC(=O)[C@H](Cc1ccc(-c2ccccc2)cc1)NC(=O)[C@H](Cc1c[nH]c2ccc(O)cc12)NC(=O)[C@H]1CCC[C@H](N)C1)C(=O)NCC(=O)Nc1ccc(N2CCOCC2)cc1 ({Cyclohexanoyl(1S,3S-3-NH2)}-[Trp(5-OH)][Bip][hArg]G-{NH(4-morpholinophenyl)})"
  UNITS_TEXT: "nM"
  Kd: 113
- COMPOUND: "N=C(N)NCCCC[C@H](NC(=O)[C@H](Cc1ccc(-c2ccc(Cl)cc2)cc1)NC(=O)[C@H](Cc1c[nH]c2ccc(O)cc12)NC(=O)CCCN)C(N)=O"
  UNITS_TEXT: "nM"
  Kd: 749
- COMPOUND: "N=C(N)NCCCC[C@H](NC(=O)[C@H](Cc1ccc(-c2ccccc2)cc1)NC(=O)[C@H](Cc1c[nH]c2ccc(O)cc12)NC(=O)CCCN)C(=O)NCC(=O)NCc1ccccc1O (H-[GABA][Trp(5-OH)][Bip][hArg]G-X1)"
  UNITS_TEXT: "nM"
  Kd: 258

// input: 4 compounds below; output: Kd for each
1. N=C(N)NCCCC[C@H](NC(=O)[C@H](Cc1ccc(-c2ccccc2)cc1)NC(=O)[C@H](Cc1c[nH]c2ccc(O)cc12)NC(=O)[C@H]1CCC[C@H](N)C1)C(N)=O
2. N=C(N)NCCCC[C@H](NC(=O)[C@H](Cc1ccc(-c2ccccc2)cc1)NC(=O)[C@H](Cc1c[nH]c2ccc(O)cc12)NC(=O)[C@@H]1CCC[C@@H](N)C1)C(N)=O
3. N=C(N)NCCCC[C@H](NC(=O)[C@H](Cc1ccc2ccccc2c1)NC(=O)[C@H](Cc1c[nH]c2ccc(O)cc12)NC(=O)CCCN)C(N)=O (H-[GABA][Trp(5-OH)][2Nal][hArg]-NH2)
4. N=C(N)NCCCC[C@H](NC(=O)[C@H](Cc1ccc(-c2ccccc2)cc1)NC(=O)[C@H](Cc1c[nH]c2ccc(O)cc12)NC(=O)CCCN)C(=O)NCC(=O)Nc1ccc(N2CCOCC2)cc1 (H-[GABA][Trp(5-OH)][Bip][hArg]G-{NH(4-morpholinophenyl)})

1. 370
2. 1210
3. 5250
4. 94

###

Target or system Ephrin type-A receptor 4 (Homo sapiens, UniProt P54764): recorded -TdeltaS listed per item.
Non-standard residues stand in square brackets, D forms with d. Residues, ends and D or L forms follow the SMILES beside them. *: point of attachment. Trp(6-OMe) = COc1ccc2c(C[C@H](N)C(=O)O)c[nH]c2c1; Trp(5-OH) = N[C@@H](Cc1c[nH]c2ccc(O)cc12)C(=O)O; NHPh(4-CH2-morpholino) = c1cc(N*)ccc1CN1CCOCC1; NH(4-morpholinophenyl) = c1cc(N2CCOCC2)ccc1N*; Bip = N[C@@H](Cc1ccc(-c2ccccc2)cc1)C(=O)O; hArg = N=C(N)NCCCC[C@H](N)C(=O)O; NHPh = c1ccc(N*)cc1; GABA = NCCCC(=O)O; X3 = Oc1cccnc1N*
Answers are plain numbers, in kcal/mol.

- MOLECULE: "N=C(N)NCCCC[C@H](NC(=O)[C@H](Cc1ccc(-c2ccccc2)cc1)NC(=O)[C@H](Cc1c[nH]c2ccc(O)cc12)NC(=O)CCCN)C(=O)NCC(=O)Nc1ccc(CN2CCOCC2)cc1 (H-[GABA][Trp(5-OH)][Bip][hArg]G-{NHPh(4-CH2-morpholino)})"
  VALUE_OBSERVED: 1.05
- MOLECULE: "N=C(N)NCCCC[C@H](NC(=O)[C@H](Cc1ccc(-c2ccccc2)cc1)NC(=O)[C@H](Cc1c[nH]c2ccc(O)cc12)NC(=O)CCCN)C(=O)NCC(=O)Nc1ccccc1 (H-[GABA][Trp(5-OH)][Bip][hArg]G-NHPh)"
  VALUE_OBSERVED: 2.87
- MOLECULE: "N=C(N)NCCCC[C@H](NC(=O)[C@H](Cc1ccc(-c2ccccc2)cc1)NC(=O)[C@H](Cc1c[nH]c2ccc(O)cc12)NC(=O)[C@H]1CCC[C@H](N)C1)C(N)=O"
  VALUE_OBSERVED: -0.67
- MOLECULE: "N=C(N)NCCC[C@H](NC(=O)[C@H](Cc1ccc(-c2ccccc2)cc1)NC(=O)[C@H](Cc1c[nH]c2ccc(O)cc12)NC(=O)CCCN)C(N)=O (H-[GABA][Trp(5-OH)][Bip]R-NH2)"
  VALUE_OBSERVED: 2.35
- MOLECULE: "C[C@H](N)C(=O)N[C@@H](Cc1c[nH]c2ccccc12)C(=O)N[C@@H](Cc1ccc(-c2ccccc2)cc1)C(=O)N[C@@H](CCCCNC(=N)N)C(N)=O (HELM PEPTIDE1{A.W.[O=C([C@H](Cc1ccc(-c2ccccc2)cc1)N[*:1])[*:2]].[N=C(N)NCCCC[C@H](N[*:1])C(=O)[*:2]].[am]}$$$$V2.0)"
  VALUE_OBSERVED: 2.01

Batch request: -TdeltaS per item, same order as input.
1. NCCCC[C@H](NC(=O)[C@H](Cc1ccc(-c2ccccc2)cc1)NC(=O)[C@H](Cc1c[nH]c2ccc(O)cc12)NC(=O)CCCN)C(N)=O (H-[GABA][Trp(5-OH)][Bip]K-NH2)
2. N=C(N)NCCCC[C@H](NC(=O)[C@H](Cc1ccc(-c2ccccc2)cc1)NC(=O)[C@H](Cc1c[nH]c2ccc(O)cc12)NC(=O)[C@H]1CC[C@H](N)C1)C(N)=O
3. N=C(N)NCCCC[C@H](NC(=O)[C@H](Cc1ccc(-c2ccccc2)cc1)NC(=O)[C@H](Cc1c[nH]c2ccc(O)cc12)NC(=O)CCCN)C(=O)NCC(=O)Nc1ccc(N2CCOCC2)cc1 (H-[GABA][Trp(5-OH)][Bip][hArg]G-{NH(4-morpholinophenyl)})
4. COc1ccc2c(C[C@H](NC(=O)CCCN)C(=O)N[C@@H](Cc3ccc(-c4ccccc4)cc3)C(=O)N[C@@H](CCCCNC(=N)N)C(N)=O)c[nH]c2c1 (H-[GABA][Trp(6-OMe)][Bip][hArg]-NH2)
5. N=C(N)NCCCC[C@H](NC(=O)[C@H](Cc1ccc(-c2ccccc2)cc1)NC(=O)[C@H](Cc1c[nH]c2ccc(O)cc12)NC(=O)CCCN)C(=O)NCC(=O)Nc1ncccc1O (H-[GABA][Trp(5-OH)][Bip][hArg]G-X3)
6. N=C(N)NCCCC[C@H](NC(=O)[C@H](Cc1ccc(-c2ccc(Cl)cc2)cc1)NC(=O)[C@H](Cc1c[nH]c2ccc(O)cc12)NC(=O)CCCN)C(N)=O
7. N=C(N)NCCCC[C@H](NC(=O)[C@H](Cc1ccc(-c2ccccc2)cc1)NC(=O)[C@H](Cc1c[nH]c2ccccc12)NC(=O)CCCN)C(N)=O (H-[GABA]W[Bip][hArg]-NH2)

1. 2.54
2. 0.21
3. 1.63
4. 2.84
5. 0.86
6. 2
7. 2.27

This collection of values is drawn from ChEMBL document CHEMBL4823296.
